Structures can show the parent of a compound that is named as a salt.
READOUT LABEL: melting point

COMPOUND | melting point
Clc1ccc(CN2CCN(c3ccccc3)CC2)cc1.O=C(O)C(=O)O.O=C(O)C(=O)O | 228 to 231 °C
COc1ccc(N2CCN(Cc3ccc(Cl)cc3)CC2)cc1 (as salt: oxalate) [Compound 3, dioxalate] | 211 to 212 °C
Br.Br.CCOc1ccccc1N1CCN(Cc2ccc(Cl)cc2)CC1 | 215 to 217 °C
Clc1ccc(CN2CCN(c3ccccc3Cl)CC2)cc1.O=C(O)C(=O)O.O=C(O)C(=O)O | 203 to 204 °C
CCOc1ccc(N2CCN(Cc3ccc(Cl)cc3)CC2)cc1.Cl.Cl | 235 to 237 °C

melting point reading for `Cc1cccc(N2CCN(Cc3ccc(Cl)cc3)CC2)c1.O=C(O)C(=O)O.O=C(O)C(=O)O` : 233 to 235 °C

melting point reading for `Cc1ccc(N2CCN(Cc3ccc(Cl)cc3)CC2)cc1.O=C(O)C(=O)O.O=C(O)C(=O)O` : 204 to 206 °C

melting point reading for `COc1ccccc1N1CCN(Cc2ccc(Cl)cc2)CC1.O=C(O)C(=O)O.O=C(O)C(=O)O` : 217 to 220 °C

* * *

This section presents molecules with their documented Ki values.
SYSTEM: D2 receptors (Homo sapiens, UniProt P14416)
Sequence (P14416 whole entry): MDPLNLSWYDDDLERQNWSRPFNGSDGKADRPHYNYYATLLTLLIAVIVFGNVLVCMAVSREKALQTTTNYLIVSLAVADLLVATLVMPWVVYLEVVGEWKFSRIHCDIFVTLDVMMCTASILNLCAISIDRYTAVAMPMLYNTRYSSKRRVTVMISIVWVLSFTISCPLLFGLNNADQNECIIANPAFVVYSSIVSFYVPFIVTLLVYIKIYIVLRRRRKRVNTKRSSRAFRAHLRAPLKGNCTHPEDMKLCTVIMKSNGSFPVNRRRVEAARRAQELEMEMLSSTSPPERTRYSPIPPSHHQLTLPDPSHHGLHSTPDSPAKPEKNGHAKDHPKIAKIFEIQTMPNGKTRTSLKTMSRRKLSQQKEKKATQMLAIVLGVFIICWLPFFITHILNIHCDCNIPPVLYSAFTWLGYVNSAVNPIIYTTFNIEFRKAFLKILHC
ASSAY DETAILS: D2 receptor binding assay (3H-YM 09151-2 displacement)
Structures can show the parent of a compound that is named as a salt.

Illustrative cases are given below, each with its answer.
MOLECULE | Ki
Cc1ccc(N2CCN(Cc3ccc(Cl)cc3)CC2)cc1C [Compound 2, dihydrochloride] | > 0.6 µM
Cc1ccc(CN2CCN(c3ccc(Cl)cc3)CC2)cc1 [Compound 4, dihydrobromide] | > 0.3 µM
Clc1ccc(CN2CCN(c3ccc(Cl)cc3)CC2)cc1 [Compound 1, Dihydrochloride] | > 1 µM

We now examine a further molecule.
Ki reading for COc1ccc(N2CCN(Cc3ccc(Cl)cc3)CC2)cc1 [Compound 3, dioxalate] : > 1 µM

* * *

SYSTEM: D4 receptors (Homo sapiens, UniProt P21917)
Sequence (P21917 1-419): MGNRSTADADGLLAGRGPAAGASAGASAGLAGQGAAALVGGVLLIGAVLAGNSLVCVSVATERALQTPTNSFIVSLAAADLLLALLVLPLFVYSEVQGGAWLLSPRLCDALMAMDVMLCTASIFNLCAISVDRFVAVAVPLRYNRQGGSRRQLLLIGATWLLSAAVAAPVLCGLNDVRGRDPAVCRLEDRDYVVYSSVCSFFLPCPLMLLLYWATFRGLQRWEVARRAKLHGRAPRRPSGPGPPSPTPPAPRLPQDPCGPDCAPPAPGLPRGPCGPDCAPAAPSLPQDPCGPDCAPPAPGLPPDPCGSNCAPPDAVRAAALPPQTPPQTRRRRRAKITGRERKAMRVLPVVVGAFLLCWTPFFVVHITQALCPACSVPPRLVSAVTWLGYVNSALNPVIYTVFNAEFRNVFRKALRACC
Counter-ions that a name gives are not always drawn.
READOUT LABEL: Ki (nM)
Respond numerically; units are nM and should not be typed.

Illustrative cases are given below, each with its answer.
COMPOUND | Ki (nM)
Cc1ccc(CN2CCN(c3ccc(Cl)cc3)CC2)cc1 [Compound 4, dihydrobromide] | 15
Cc1ccc(N2CCN(Cc3ccc(Cl)cc3)CC2)cc1C [Compound 2, dihydrochloride] | 16
Clc1ccc(CN2CCN(c3ccc(Cl)cc3)CC2)cc1 [Compound 1, Dihydrochloride] | 5

We now examine a further compound.
Ki reading for COc1ccc(N2CCN(Cc3ccc(Cl)cc3)CC2)cc1 [Compound 3, dioxalate] : 5

The measured values listed here are drawn from patent US6656943B2.
